These data points were gathered from ChEMBL document CHEMBL3880418.

study_system: Sterol O-acyltransferase 2 (Mus musculus)
assay_explanation: Ratio of compound IC50 to PRD 043 IC50 for ACAT2 in mouse hepatic microsomal membranes
Type: cell membranes
test_parameters: Liver, Microsomal Membrane
experimental_endpoint: Ratio IC50

Study these solved cases before continuing.
molecule=COc1ccccc1[C@@H]1OC[C@@]2(C)[C@@H]3C[C@H](OC(=O)c4ccc(C#N)cc4)[C@@]4(C)Oc5cc(-c6cccnc6)oc(=O)c5[C@H](O)[C@@H]4[C@@]3(C)CC[C@@H]2O1 value_measured="< 20"
molecule=Cc1cccc([C@@H]2OC[C@@]3(C)[C@@H]4C[C@H](OC(=O)c5ccc(F)cc5)[C@@]5(C)Oc6cc(-c7cccnc7)oc(=O)c6[C@H](O)[C@@H]5[C@@]4(C)CC[C@@H]3O2)c1 value_measured="< 20"
molecule=CC(=O)O[C@H]1C[C@H]2[C@](C)(COC(=O)C(C)C)[C@@H](OC(=O)C(C)C)CC[C@]2(C)[C@H]2[C@@H](O)c3c(cc(-c4cccnc4)oc3=O)O[C@]12C value_measured="< 20"
molecule=Cc1cccc(C)c1[C@@H]1OC[C@@]2(C)[C@@H]3C[C@H](OC(=O)c4ccc(C#N)cc4)[C@@]4(C)Oc5cc(-c6cccnc6)oc(=O)c5[C@H](O)[C@@H]4[C@@]3(C)CC[C@@H]2O1 value_measured="< 20"
molecule=CCCCCC(=O)OC[C@@]1(C)[C@@H]2C[C@H](OC(=O)c3ccc(C#N)cc3)[C@@]3(C)Oc4cc(-c5cccnc5)oc(=O)c4[C@H](O)[C@@H]3[C@@]2(C)CC[C@@H]1OC(=O)CCCCC value_measured="< 20"
molecule="CC(C)C(=O)OCC1(C)[C@@H](OC(=O)C(C)C)CC[C@]2(C)[C@H]3[C@@H](O)c4c(cc(-c5cccnc5)oc4=O)O[C@]3(C)[C@@H](OC(=O)c3ccc(C#N)cc3)C[C@@H]12 (single isomer, unassigned)" value_measured="< 1"

Noted for C[C@@]12CO[C@@H](c3ccccc3F)O[C@H]1CC[C@@]1(C)[C@H]2C[C@H](OC(=O)c2ccc(F)cc2)[C@@]2(C)Oc3cc(-c4cccnc4)oc(=O)c3[C@H](O)[C@H]12 : its Ratio IC50 reads < 20

Ratio IC50 for CC(=O)O[C@H]1CC[C@@]2(C)[C@@H](C[C@H](OC(=O)c3ccc(C#N)cc3)[C@@]3(C)Oc4cc(-c5cccnc5)oc(=O)c4[C@H](O)[C@H]23)[C@]1(C)COC(=O)C(C)C is < 20

Measured Ratio IC50, Cc1ccc([C@@H]2OC[C@@]3(C)[C@@H]4C[C@H](OC(=O)c5ccc(F)cc5)[C@@]5(C)Oc6cc(-c7cccnc7)oc(=O)c6[C@H](O)[C@@H]5[C@@]4(C)CC[C@@H]3O2)cc1 : < 20

molecule Cc1ccc([C@@H]2OC[C@@]3(C)[C@@H]4C[C@H](OC(=O)c5ccc(C#N)cc5)[C@@]5(C)Oc6cc(-c7cccnc7)oc(=O)c6[C@H](O)[C@@H]5[C@@]4(C)CC[C@@H]3O2)c(C)c1 , Ratio IC50 observed: < 20
